System: blackgrass (Alopecurus myosuroides)
test-description: Test C pre-/postemergence plant response
Format: in vivo
test-settings: Preemergence, 8 g ai/ha; scale 0 to 100 (0 no effect, 100 complete control)
Source text: […] Treated plants and controls were maintained in a controlled growth environment for 15 to 25 days after which time all species were compared to controls and visually evaluated. […]
# Plant response rating, Blackgrass per record follows

molecule: COC(=O)Oc1cnn(C)c(=O)c1-n1nc(-c2ccc(Cl)cc2)cc1C [Compound 33]
Plant response rating, Blackgrass: 0

molecule: C#CCOC(=O)Oc1cnn(C)c(=O)c1-n1nc(-c2ccc(Cl)cc2)cc1C [Compound 58]
Plant response rating, Blackgrass: 0

molecule: CCc1cc(-c2ccc(F)cc2)nn1-c1c(O)cnn(C)c1=O [Compound 25]
Plant response rating, Blackgrass: 0

molecule: CCc1cc(-c2ccc(C(F)(F)F)cc2)nn1-c1c(O)cnn(C)c1=O [Compound 11]
Plant response rating, Blackgrass: 85

Data credit: patent US20100267561A1
